- System: DENV2
- assay-method-text: Dose-response assay, viral RNA by one-step qRT-PCR
- Type: cell-based, Dengue virus serotype-2 (DENV2)
- assay-conditions: 24 h, HepG2 infected with DENV2, MOI 2, peptide 0-80 μM added after infection, quadruplicate experiments, ± SD
No end group written: not given here.
outcome-measure: EC50 (µM)
Response body: numeric value in µM, unit text excluded.

Exercise: Request the reported EC50 associated with SMWSGMWRRKLKKLRNALKKKLKGE [Ltc 1]
Key: 8.3
